- MEASURED TARGET: LHRH receptor (Rattus norvegicus, UniProt P30969)
- Construct: endogenous in cells
- Sequence (P30969 whole entry): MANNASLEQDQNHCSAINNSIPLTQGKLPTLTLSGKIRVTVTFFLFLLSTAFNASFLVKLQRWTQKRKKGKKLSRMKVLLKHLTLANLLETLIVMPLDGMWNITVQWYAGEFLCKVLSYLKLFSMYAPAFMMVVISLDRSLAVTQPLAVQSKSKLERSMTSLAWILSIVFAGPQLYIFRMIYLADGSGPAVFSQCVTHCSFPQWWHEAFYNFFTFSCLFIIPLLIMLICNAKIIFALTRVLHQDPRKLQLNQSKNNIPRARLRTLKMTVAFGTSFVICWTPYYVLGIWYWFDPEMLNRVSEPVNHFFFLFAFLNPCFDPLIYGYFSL
- TEST DESCRIPTION: in vitro LHRH antagonist potency (pA2) against the agonist leuprolide
- Type: cell-based
- RECORDED CONDITIONS: negative logarithm of the antagonist concentration which shifts the response curve produced by the agonist leuprolide to two-fold higher concentration
Where a SMILES comes first, the peptide text is derived from it. Side-chain parts run from the residue outwards. [ ]: non-standard residue; d: D form. The star is where a group is joined. NMePhe(4-NH(5-NH2-Trz-3-yl)) = CN[C@@H](Cc1ccc(Nc2n[nH]c(N)n2)cc1)C(=O)O; Shikimoyl = O=C(C1=C[C@@H](O)[C@@H](O)[C@H](O)C1)*; Quinoline4carbonyl = O=C(c1ccnc2ccccc12)*; dPhe(4-Cl) = N[C@H](Cc1ccc(Cl)cc1)C(=O)O; d2Nal = N[C@H](Cc1ccc2ccccc2c1)C(=O)O; Lys(iPr) = CC(C)NCCCC[C@H](N)C(=O)O; NMeY = CN[C@@H](Cc1ccc(O)cc1)C(=O)O; d3Pal = N[C@H](Cc1cccnc1)C(=O)O; X4 = Nc1nc(NCC(=O)*)n[nH]1
READOUT LABEL: Kb (pM)

- CC(=O)N[C@H](Cc1ccc2ccccc2c1)C(=O)N[C@H](Cc1ccc(Cl)cc1)C(=O)N[C@H](Cc1cccnc1)C(=O)N[C@@H](CO)C(=O)N(C)[C@@H](Cc1ccc(Nc2n[nH]c(N)n2)cc1)C(=O)N[C@H](CCCCNC(=O)CNc1n[nH]c(N)n1)C(=O)N[C@@H](CC(C)C)C(=O)N[C@@H](CCCCNC(C)C)C(=O)N1CCC[C@H]1C(=O)N[C@H](C)C(N)=O [Example 63] (Ac-[d2Nal][dPhe(4-Cl)][d3Pal]S[NMePhe(4-NH(5-NH2-Trz-3-yl))][dK](X4)L[Lys(iPr)]P[dA]-NH2): 4.47
- CC(=O)N[C@H](Cc1ccc2ccccc2c1)C(=O)N[C@H](Cc1ccc(Cl)cc1)C(=O)N[C@H](Cc1cccnc1)C(=O)N[C@@H](CO)C(=O)N(C)[C@@H](Cc1ccc(O)cc1)C(=O)N[C@H](CCCCNC(=O)[C@@H](CO)NC(=O)CNC(=O)C1=C[C@@H](O)[C@@H](O)[C@H](O)C1)C(=O)N[C@@H](CC(C)C)C(=O)N[C@@H](CCCNC(=N)N)C(=O)N1CCC[C@H]1C(=O)N[C@H](C)C(N)=O [Example 48j] (Ac-[d2Nal][dPhe(4-Cl)][d3Pal]S[NMeY][dK]([dS-Gly-Shikimoyl])LRP[dA]-NH2): 17
- CC(=O)N[C@H](Cc1ccc2ccccc2c1)C(=O)N[C@H](Cc1ccc(Cl)cc1)C(=O)N[C@H](Cc1cccnc1)C(=O)N[C@@H](CO)C(=O)N(C)[C@@H](Cc1ccc(O)cc1)C(=O)N[C@H](CCCCNC(=O)CNC(=O)c1ccnc2ccccc12)C(=O)N[C@@H](CC(C)C)C(=O)N[C@@H](CCCNC(=N)N)C(=O)N1CCC[C@H]1C(=O)N[C@H](C)C(N)=O [Example 51d] (Ac-[d2Nal][dPhe(4-Cl)][d3Pal]S[NMeY][dK]([Gly-Quinoline4carbonyl])LRP[dA]-NH2): 14.1
